Below, each entry is listed alongside its reported pest or weed control at 70 g/ha.
- Test system: Key Broadleaf Weed and Crop Species
- Assay Procedure: Post-Emergent Test II: postemergent herbicidal activity, visual rating after 14 d (Table 7)
- Format: in vivo
- Cond: post-emergence, 336 h, velvetleaf (Abutilon theophrasti), 70 g ai/ha, read-out: Visual Growth Reduction (%) 14 Days After Application ABUTH
Quantity Measured: pest or weed control at 70 g/ha

[
  {
    "Input Smiles": "COC(=O)c1nc(-c2ccc(I)c3c2OC(F)(F)O3)c(F)c(N)c1Cl",
    "Result": "75 to 84%"
  },
  {
    "Input Smiles": "COC(=O)c1nc(-c2cc3c(cc2F)OC(F)(F)O3)cc(N)c1Cl",
    "Result": "85 to 94%"
  },
  {
    "Input Smiles": "C=Cc1c(C(=O)O)nc(-c2ccc3c(c2)OC(F)(F)O3)c(F)c1N",
    "Result": "75 to 84%"
  }
]
